Field IC50: reported value for human DGAT2 (hDGAT2) (Homo sapiens, UniProt Q96PD7); entries drawn from several documents.
Friendly reminder: IC50 below 1000 nM is Criterion met, at or above is Criterion not met.

A selection of reference data follows.
# molecule, category
measured = [
    ("Cc1c(Oc2nccnc2OCC(F)(F)F)cc(F)c2nc(C(=O)NC3(C)CCS(=O)(=O)CC3)cn12", "Criterion met"),
    ("C[C@@H](NC(=O)c1ccc2c(-c3ccccc3Cl)nn(-c3ccc(F)cc3)c2c1)[C@@H](O)c1ccccc1", "Criterion met"),
    ("Cc1ncc(OC(F)F)cc1-c1nn(C(C)C)c2cc(C(=O)N[C@]3(C)CS(=O)(=O)C[C@H]3O)cnc12", "Criterion met"),
]

Ask: Check if IC50 falls below 1000 nM for "CC1(NC(=O)c2cc3cc(Oc4ncc(F)cc4OC4CC4)ccn3n2)CCS(=O)(=O)CC1" .
Result: Criterion met

Ask: Check if IC50 falls below 1000 nM for COC(=O)c1cccc(-c2ccc(CNC(=O)C3CC3c3ccccc3)c3c2CCN(C(=O)c2cnoc2C(C)C)C3)c1 (stereo not drawn) .
Result: Criterion not met

Ask: Check if IC50 falls below 1000 nM for CC(C)(C)NC(=O)N1CCc2c(-c3cnn(Cc4ccccc4)c3)ccc(CNC(=O)[C@@H]3C[C@H]3c3ccccc3)c2C1 (relative stereo) .
Result: Criterion not met

###

Field IC50: reported value for human DGAT2 (hDGAT2) (Homo sapiens); entries drawn from several documents.
Your answer is read as µM, so omit the unit and give the number.

# molecule, measurement-units, IC50
data = [
    ("Cn1nccc1-c1nn(-c2ccc(F)cc2)c2cc(C(=O)N[C@@]3(C)CCS(=O)(=O)C3)cnc12", "µM", 0.142),
    ("NS(=O)(=O)CCNC(=O)c1ccc2c(-c3ccccc3Cl)nn(-c3ccc(F)cc3)c2c1", "µM", 0.148),
    ("CC(C)(C)OC(=O)N1CC[C@@H](NC(=O)c2ccc3c(-c4ccccc4Cl)nn(-c4ccc(F)cc4)c3c2)C1", "µM", 0.136),
]

Next up:
Ask: human DGAT2 (hDGAT2) (Homo sapiens) / IC50 / CCCNC(=O)N1CCc2c(-c3cccc(C(F)(F)F)c3)ccc(CNC(=O)[C@@H]3C[C@H]3c3nc(C)no3)c2C1 (relative stereo) : value?
Result: 0.0115
